organism: Mus musculus; experiment: Protective index (TD50/ED50) produced by compound in mouse after ScMet test
Strictly below 3 in PI: 1. Otherwise: -1.

Cc1ccc(COc2ccc3c(c2)CCc2nncn2-3)cc1: -1
c1ccc(COc2ccc3c(c2)CCc2nncn2-3)cc1: 1
CCCCCCOc1ccc2c(c1)CCc1nncn1-2: 1
NC(=O)N1c2ccccc2C=Cc2ccccc21 [CARBAMAZEPINE]: 1
Fc1ccc(COc2ccc3c(c2)CCc2nncn2-3)cc1: -1
Brc1cccc(COc2ccc3c(c2)CCc2nncn2-3)c1: -1
O=C1NC(=O)C(c2ccccc2)(c2ccccc2)N1: 1

* * *

tested on: Mus musculus; assay: Concentration producing seizure after 4 hrs tested by ScMet (Subcutaneous pentylenetetrazole test) done after 30 min of administration of 85 mg/kg pentylenetetrazol in mouse; na=no activity; assay type: functional, organism-based; parameters: dose 85 mg/kg
Measurement Label: DOSE

c1cc2c(cc1COc1ccc3c(c1)CCc1nncn1-3)OCO2: No activity
COc1ccc(COc2ccc3c(c2)CCc2nncn2-3)cc1: No activity
CCCCCCCCOc1ccc2c(c1)CCc1nncn1-2: No activity
Fc1ccc(COc2ccc3c(c2)CCc2nncn2-3)cc1: No activity
CCCCCCOc1ccc2c(c1)CCc1nncn1-2: No activity
CCCCCCCCCCCCOc1ccc2c(c1)CCc1nncn1-2: No activity
